- MEASUREMENT_TARGET: rh-BuChE (Homo sapiens, UniProt P06276)
- Sequence (P06276 29-602): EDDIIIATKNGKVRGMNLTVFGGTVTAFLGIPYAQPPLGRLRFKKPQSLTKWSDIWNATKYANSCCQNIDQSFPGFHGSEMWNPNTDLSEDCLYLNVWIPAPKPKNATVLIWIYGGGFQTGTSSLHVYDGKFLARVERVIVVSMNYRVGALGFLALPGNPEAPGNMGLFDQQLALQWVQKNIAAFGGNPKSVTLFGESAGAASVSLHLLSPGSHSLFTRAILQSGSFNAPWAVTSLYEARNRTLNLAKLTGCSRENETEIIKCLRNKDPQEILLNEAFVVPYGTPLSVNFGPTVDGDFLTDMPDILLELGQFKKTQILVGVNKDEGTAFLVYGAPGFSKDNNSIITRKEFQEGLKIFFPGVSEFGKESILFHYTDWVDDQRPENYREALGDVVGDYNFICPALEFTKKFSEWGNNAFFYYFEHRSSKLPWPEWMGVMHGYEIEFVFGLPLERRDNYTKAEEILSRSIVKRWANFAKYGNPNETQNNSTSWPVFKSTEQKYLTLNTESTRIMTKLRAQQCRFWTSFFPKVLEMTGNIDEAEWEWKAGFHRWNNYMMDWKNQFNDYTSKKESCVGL
- ASSAY_METHOD_TEXT: IC50 rh-BuChE
- Type: biochemical
ATTRIBUTE_MEASURED: IC50
The reply should consist of the numeric value with the unit placed after it.

Exercise: Which IC50 is listed for CCOC(=O)C(CCC1=CC2Cc3nc4cc(Cl)ccc4c(N)c3C(C1)C2)C(=O)OCC (stereo not shown) ?
Key: 319 nM

Exercise: Queued: CN(C)CCC1=CC2Cc3nc4cc(Cl)ccc4c(N)c3C(C1)C2 (stereo not shown)
Key: 2910 nM

Exercise: Queued: COC(=O)CCCC1=CC2Cc3nc4cc(Cl)ccc4c(N)c3C(C1)C2 (stereo not shown)
Key: 124 nM

Consider the additional compound presented here.
Exercise: Which IC50 is listed for NNCCC1=CC2Cc3nc4cc(Cl)ccc4c(N)c3C(C1)C2 (stereo not shown) ?
Key: 668 nM
